Measurement target: Inadl_7, Q8NI35
Sequence (Q8NI35 1219-1332): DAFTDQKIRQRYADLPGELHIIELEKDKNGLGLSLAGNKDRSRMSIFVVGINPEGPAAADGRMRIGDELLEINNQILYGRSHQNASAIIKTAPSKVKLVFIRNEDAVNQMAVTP
Assay explanation: holdup assay
Design: key: below the threshold = too weak to quantify, mostly under pKd 3.1 to 4
Condition label: plain residues with an end cap or a label only (N-terminal biotin on a linker: ttds)

| Binder | pKd |
| --- | --- |
| SRPQRTQTQV [HPV67-E6, A4U7F2] | 4.46 |
| QSARYRDTEL [TJP2, Q9UDY2] | below the threshold |
| SVWLRKETRV [CYSLTR2, Q9NS75] | below the threshold |
| STLTIFETAL [ABCC4, O15439] | below the threshold |
| RSLEEEESQL [GRASP, Q7Z6J2] | below the threshold |
| SSRTRRETQL [HPV16-E6, P03126] | below the threshold |
